Origin of the recorded values: patent US11993604B2

Kindly supply the reported IC50 values for the records listed here.
Tested On: recombinant CDK4/Cyclin D1 (Homo sapiens, UniProt P11802)
Construct: purchased Life Technologies PV4204
Sequence (P11802 whole entry): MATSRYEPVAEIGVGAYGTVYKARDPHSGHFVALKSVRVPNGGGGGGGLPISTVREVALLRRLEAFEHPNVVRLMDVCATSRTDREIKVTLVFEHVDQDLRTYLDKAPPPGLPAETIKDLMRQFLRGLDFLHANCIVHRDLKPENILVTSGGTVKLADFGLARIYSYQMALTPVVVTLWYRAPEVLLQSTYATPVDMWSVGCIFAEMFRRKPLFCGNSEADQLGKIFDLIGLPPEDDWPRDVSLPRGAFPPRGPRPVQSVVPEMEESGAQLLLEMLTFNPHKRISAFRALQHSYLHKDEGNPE
Sequence (P24385 whole entry partner): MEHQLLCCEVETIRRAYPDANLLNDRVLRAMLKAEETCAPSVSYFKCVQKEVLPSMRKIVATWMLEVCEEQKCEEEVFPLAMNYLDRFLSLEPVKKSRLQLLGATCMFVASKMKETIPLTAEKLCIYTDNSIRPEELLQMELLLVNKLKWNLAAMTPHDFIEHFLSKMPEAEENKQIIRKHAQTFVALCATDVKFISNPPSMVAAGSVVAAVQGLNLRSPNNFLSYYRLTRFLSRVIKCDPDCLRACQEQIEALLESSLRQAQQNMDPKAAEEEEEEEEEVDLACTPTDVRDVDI
Experimental Protocol: Biochemical kinase inhibition test, CDK4/Cyclin D1 (32P-ATP, retinoblastoma protein substrate)
Protocol Conditions: three-fold serial dilution from 10 μM; 10 μM ATP; read-out: CDK4/D1 (nM), enzyme inhibitory activity IC50

Give the measured IC50 of Cc1nc(Nc2ncc3ccc4cnn(C(C)C)c4c3n2)ccc1N1CCOC(C)C1 (centres unmarked) .
5 to 10 nM

Give the measured IC50 of `CC(C)n1ncc2c(C#N)cc3cnc(Nc4ccc(N5CCOCC5)cn4)nc3c21` .
10 to 20 nM

Give the measured IC50 of `CC(C)n1ncc2ccc3cnc(N4CCC[C@@H]4c4cccc(F)c4)nc3c21` .
50 to 100 nM

Give the measured IC50 of `CC(C)n1ncc2ccc3cnc(Nc4ccc(N5CCC6(CCNCC6)C5)cn4)nc3c21` .
20 to 50 nM

Give the measured IC50 of `CC(=O)c1cc2cnc(Nc3cc(F)c(N4CCNCC4)cn3)nc2c2c1cnn2C(C)C.Cl` .
10 to 20 nM

Give the measured IC50 of `CCN1CCN(c2ccc(Nc3ncc4ccc5cnn(C(C)C)c5c4n3)nc2)CC1` .
1 to 5 nM

Give the measured IC50 of `CCN1CCN(c2ccc(Nc3ncc4ccc5cnn(C6CCCC6)c5c4n3)nc2C)CC1` .
1 to 5 nM

Give the measured IC50 of `Cl.c1cc(Nc2ncc3ccc4cnn(C5CC5)c4c3n2)ncc1N1CCNCC1` .
10 to 20 nM

Give the measured IC50 of `CCn1ncc2ccc3cnc(Nc4ccc(N5CCNCC5)cn4)nc3c21.Cl` .
10 to 20 nM

Give the measured IC50 of `Cc1nc(Nc2ncc3ccc4cnn(C5CCCC5)c4c3n2)ccc1N1CCOCC1` .
1 to 5 nM

Give the measured IC50 of `CCN1CCN(c2cnc(Nc3ncc4ccc5cnn(C6CCCC6)c5c4n3)cc2C)CC1` .
10 to 20 nM

Give the measured IC50 of `CCN1CCN(c2ccc(Nc3ncc4ccc5cnn(C6CCCC6)c5c4n3)nc2)CC1` .
< 1 nM

Give the measured IC50 of `c1cc(Nc2ncc3ccc4cnn(C5CCCC5)c4c3n2)ncc1N1CCOCC1` .
1 to 5 nM

Give the measured IC50 of `CC(C)n1ncc2ccc3cnc(Nc4ccc(N5CCNC(C)(C)C5)cn4)nc3c21` .
10 to 20 nM

Give the measured IC50 of `CC(=O)c1cc2cnc(Nc3ccc(N4CCOCC4)cn3)nc2c2c1cnn2C(C)C` .
5 to 10 nM

Give the measured IC50 of `CCN1CCN(c2ccc(Nc3ncc4ccc5cnn(C(C)C)c5c4n3)nc2C)CC1` .
1 to 5 nM

Give the measured IC50 of `CC(C)n1ncc2c(Br)cc3cnc(Nc4ccc(N5CCOCC5)cn4)nc3c21` .
10 to 20 nM
